Reported pIC50 values for a set of compounds
# TARGET ENTITY: protein-protein interaction between Kras and SOS1 (biotin-tagged human Kras loaded with GDP, His-tagged human SOS1) (Homo sapiens (Human), UniProt P01116, G12D)
# ASSAY INFO: Protein-protein interaction inhibition between Kras and SOS1 (KrasG12D-SOS PPI) using AlphaScreen;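 further: kras produced in E. coli, Ni-coupled donor beads and streptavidin acceptor beads, excitation 680 nm with emission detected at 520–620 nm via singlet oxygen transfer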
# Type: biochemical
# CONDITION CONTEXT: AlphaScreen; biotin-tagged human Kras loaded with GDP, His-tagged human SOS1; read-out: KRAS G12D-SOS PPI IC50
pIC50: −log10 of the molar value. Numbered stars: 1 amine (or outer) side, 2 acyl side, 3 side chain; on linkers, the order of the positions; unused ones are H or OH. Bridge positions count the residues as written; N and C are the ends. Square brackets hold non-standard residues; d marks the D form. Peptide text beside a SMILES is read from it. hPhe(3-Cl-4-CF3) = N[C@@H](CCc1ccc(C(F)(F)F)c(Cl)c1)C(=O)O; hPhe(3-F,4-CF3) = N[C@@H](CCc1ccc(C(F)(F)F)c(F)c1)C(=O)O; NMeGly(cPent) = CN[C@H](C(=O)O)C1CCCC1; NMeCha = CN[C@@H](CC1CCCCC1)C(=O)O; X82 = O=C(CN(CCC1CNC1)[*:1])[*:2]; NMeI = CC[C@H](C)[C@H](NC)C(=O)O; d(β3hL) = CC(C)C[C@@H](N)CC(=O)O; NMeD = CN[C@@H](CC(=O)O)C(=O)O; NMeL = CN[C@@H](CC(C)C)C(=O)O; d(β3hA) = C[C@@H](N)CC(=O)O; NMeA = CN[C@@H](C)C(=O)O; dNMeA = CN[C@H](C)C(=O)O; Ac5c = NC1(C(=O)O)CCCC1; Aze = O=C(O)[C@@H]1CCN1; Sar = CNCC(=O)O
ASSAY ENDPOINT: pIC50

| COMPOUND | QUANTITATIVE RESULT |
| --- | --- |
| CC[C@H](C)[C@@H]1NC(=O)[C@H](CC(C)C)N(C)C(=O)C[C@@H](C)NC(=O)[C@H](C2CCCC2)N(C)C(=O)C2(CCCC2)NC(=O)[C@@H]2CCCN2C(=O)[C@H](CCc2ccc(C(F)(F)F)c(Cl)c2)NC(=O)[C@@H](C)N(C)C(=O)[C@H](CC2CCCCC2)N(C)C(=O)[C@@H]2CCN2C(=O)CN(C)C1=O [Compound 1531] (cyclo([Ac5c][NMeGly(cPent)][d(β3hA)][NMeL]I[Sar][Aze][NMeCha][dNMeA][hPhe(3-Cl-4-CF3)]P)) | 6.64 |
| CC[C@H](C)[C@@H]1NC(=O)[C@H](CC(C)C)N(C)C(=O)C[C@@H](C(=O)N(C)C)N(C)C(=O)[C@H](C2CCCC2)N(C)C(=O)C2(CCCC2)NC(=O)CN(CCC2CNC2)C(=O)[C@H](CCc2ccc(C(F)(F)F)c(F)c2)NC(=O)CN(C)C(=O)[C@H](CC2CCCCC2)N(C)C(=O)[C@@H]2CCN2C(=O)[C@H](C)N(C)C1=O [Compound 2182] ([NMeL]I[NMeA][Aze][NMeCha][Sar][hPhe(3-F,4-CF3)][X82][Ac5c][NMeGly(cPent)][NMeD]-NMe2; lactam N-11) | 8.44 |
| CC[C@H](C)[C@@H]1NC(=O)[C@H](CC(C)C)N(C)C(=O)C[C@@H](CC(C)C)NC(=O)[C@H]([C@@H](C)CC)N(C)C(=O)C2(CCCC2)NC(=O)[C@@H]2CCCN2C(=O)[C@H](CCc2ccc(C(F)(F)F)c(Cl)c2)NC(=O)CN(C)C(=O)[C@H](CC2CCCCC2)N(C)C(=O)[C@@H]2CCN2C(=O)[C@H](C)N(C)C1=O [Compound 798] (cyclo([Ac5c][NMeI][d(β3hL)][NMeL]I[NMeA][Aze][NMeCha][Sar][hPhe(3-Cl-4-CF3)]P)) | 7.23 |
